system: GC3/MTK-; experiment: Compound is screened for cell growth inhibition against GC3/MTK-cell line, a human thymidine kinase deficient adenocarcinoma line; type: functional, cell-based
attributeMeasured: IC50 (µM)
Give the value, in units of µM, as a plain number.

// IC50 lookup, key: Cc1cc(CN(C)c2ccc3c4c(ccc(C)c24)C(N)=N3)ccn1
0.6

Note, next up: Cc1cc(CN(C)c2ccc3c4c(cccc24)C(N)=N3)ccn1
7.9

// repeat for CN(Cc1ccnc(C(F)(F)F)c1)c1ccc2c3c(cccc13)C(N)=N2 and report
12

----------
Reported Ki is given for each of the following compounds.
biological target: Thymidylate synthase (Homo sapiens); experiment: Inhibitory effect against recombinant human thymidylate synthase
Express your answer in nM, writing the number without its unit.

compound	observedResult
Cc1ccc2c3c(ccc(N(C)Cc4ccnnc4)c13)N=C2N	10

Given the compound CN(Cc1ccc(S(=O)(=O)N2CCOCC2)cc1)c1ccc2c3c(cccc13)C(N)=N2 [METESIND] , what is its reported Ki?
15

Now the compound CCc1cc(CN(C)c2ccc3c4c(cccc24)C(N)=N3)ccn1
25

And Cc1cc(CN(C)c2ccc3c4c(cccc24)C(N)=N3)ccn1 ?
14

----------
biological target: Thymidylate synthase (Homo sapiens, UniProt P04818); test: Inhibitory effect against recombinant human thymidylate synthase
Sequence (P04818 whole entry): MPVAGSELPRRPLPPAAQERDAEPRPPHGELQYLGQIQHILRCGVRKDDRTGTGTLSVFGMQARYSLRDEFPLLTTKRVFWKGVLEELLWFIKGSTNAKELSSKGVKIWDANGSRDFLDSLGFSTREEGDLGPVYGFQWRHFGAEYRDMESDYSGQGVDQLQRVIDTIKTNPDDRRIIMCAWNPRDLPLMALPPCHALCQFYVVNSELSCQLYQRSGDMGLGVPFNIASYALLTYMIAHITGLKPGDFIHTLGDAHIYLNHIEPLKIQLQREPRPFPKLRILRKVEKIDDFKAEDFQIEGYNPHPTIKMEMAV
Ki: recorded values
Quick reminder: number only, in µM, skip the unit.

These solved cases illustrate the format of a correct answer.
substanceSmiles	observedResult
CNC1=Nc2ccc(N(C)Cc3ccnnc3)c3c(C)ccc1c23	0.03
Cc1cc(CN(C)c2ccc3c4c(ccc(C)c24)C(N)=N3)ccn1	0.004
CN(Cc1ccnc(C(F)(F)F)c1)c1ccc2c3c(cccc13)C(N)=N2	0.045
CN(Cc1ccnc(CO)c1)c1ccc2c3c(cccc13)C(N)=N2	0.018
CN(Cc1ccnnc1)c1ccc2c3c(cccc13)C(N)=N2	0.015

Short answer please: Ki, Thymidylate synthase (Homo sapiens, UniProt P04818), entry CNC1=Nc2ccc(N(C)Cc3ccncc3)c3c(C)ccc1c23
0.014

Please do the same for CNC1=Nc2ccc(N(C)Cc3ccncc3)c3cccc1c23 as well.
0.27

Another: CNC1=Nc2ccc(N(C)Cc3ccnnc3)c3cccc1c23
0.31

Then what about the compound CN(Cc1ccncc1)c1ccc2c3c(cccc13)C(N)=N2 ?
0.017

// repeat for CN(Cc1ccnc(Sc2ccccc2)c1)c1ccc2c3c(cccc13)C(N)=N2 and report
0.052

Now give it for Cc1ccc2c3c(ccc(N(C)Cc4ccncc4)c13)N=C2N too.
0.006
